Provide the recorded protein stability index for the entries that follow.
B1: DYRK1B (parent)
chain: ARKYFERLPGGGWTLRRTKELRKD

- Variants of: B1
- method_notes: protein stability index of a GFP-peptide fusion (GPS, HEK-293T) (PSI 1-6); higher = more stable;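 further: lentivirally expressed fusions sorted by FACS into six bins by GFP to DsRed ratio, PSI derived from sequencing read proportions per bin multiplied by bin number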
- condition_set: c terminus: a fixed tail appended
Answers are plain numbers.

{"columns": ["monomer_sequence", "measured_property", "meas_value"],
 "data": [
  ["ARKYFERLPWGGWTLRRTKELRKD", "protein stability index", 2.97],
  ["ARKYFERLPGGGWTLIRTKELRKD", "protein stability index", 2.99]
]}

Query :: State the recorded protein stability index for this entry: `ARKYFERLPGGTWTLRRTKELRKD`
Result :: 2.98
